Origin of measurements: ChEMBL document CHEMBL4382222

- System Under Test: Vitamin D3 receptor (Homo sapiens) (UniProt P11473)
- Sequence (P11473 whole entry): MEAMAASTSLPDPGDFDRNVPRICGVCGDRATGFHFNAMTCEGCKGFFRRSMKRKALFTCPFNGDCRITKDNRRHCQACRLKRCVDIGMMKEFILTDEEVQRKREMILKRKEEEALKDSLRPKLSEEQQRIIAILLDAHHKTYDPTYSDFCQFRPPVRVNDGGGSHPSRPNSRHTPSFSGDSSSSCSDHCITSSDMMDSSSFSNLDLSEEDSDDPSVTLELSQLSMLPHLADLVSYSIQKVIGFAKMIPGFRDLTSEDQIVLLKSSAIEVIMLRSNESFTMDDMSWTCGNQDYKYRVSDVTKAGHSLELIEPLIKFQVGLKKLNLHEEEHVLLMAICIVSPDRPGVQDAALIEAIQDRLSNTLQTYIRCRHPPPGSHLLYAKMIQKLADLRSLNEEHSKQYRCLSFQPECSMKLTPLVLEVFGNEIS
- Test Description: Agonist activity at human VDR expressed in HOS cells co-expressing human RXR at 0.00001 to 10 uM by Dual-Glo luciferase reporter gene assay relative to 1alpha,25(OH)2D3
- Format: cell-based
Readout Name: Emax
A complete answer gives the number and then names the unit.

q: Give Emax for CCC(CC)(c1ccc(OC[C@@H](O)CO)c(C)c1)c1ccc(OCC(C)(C)O)c(C)c1
a: 67%

q: Retrieve Emax measured for CCC(CC)(c1ccc(OCCC(C)(C)O)c(C)c1)c1ccc(OC[C@@H](O)CO)c(C)c1 and print it.
a: 100%

q: Give the reported Emax for this compound. CCC(O)(CC)COc1ccc(C(CC)(CC)c2ccc(OC[C@@H](O)CO)c(C)c2)cc1C
a: 90%

q: In one line, give reported Emax of the entry CCC(O)(CC)COc1ccc(C(CC)(CC)c2ccc(OC(CO)CO)c(C)c2)cc1C .
a: 100%

q: Report Emax, nothing else, for this compound: CCC(CC)(c1ccc(OCCC(C)(C)O)c(C)c1)c1ccc(OCC(CO)CO)c(C)c1
a: 91%

q: Annotate the compound CCC(CC)(c1ccc(OCC(CO)CO)c(C)c1)c1ccc(OCC(C)(C)O)c(C)c1 with its measured Emax.
a: 91%

q: Specify measured Emax for CCC(O)(CC)COc1ccc(C(CC)(CC)c2ccc(OCC(CO)CO)c(C)c2)cc1C .
a: 100%

* * *

- System Under Test: Vitamin D3 receptor (Homo sapiens, UniProt P11473)
- Sequence (P11473 whole entry): as above
- Test Description: Agonist activity at human VDR expressed in HOS cells co-expressing human RXR by Dual-Glo luciferase reporter gene assay
Readout Name: EC50 (nM)
Respond numerically; units are nM and should not be typed.

q: Consider the compound CCC(O)(CC)COc1ccc(C(CC)(CC)c2ccc(OCC(CO)CO)c(C)c2)cc1C . State its measured EC50.
a: 9.26

q: Report measured EC50; entry is CCC(CC)(c1ccc(OCC(CO)CO)c(C)c1)c1ccc(OCC(C)(C)O)c(C)c1
a: 76.5

q: Name the recorded EC50 of the item CCC(CC)(c1ccc(OCCC(C)(C)O)c(C)c1)c1ccc(OCC(CO)CO)c(C)c1 in your answer.
a: 76.9

q: In one line, give reported EC50 of the entry CCC(CC)(c1ccc(OC[C@@H](O)CO)c(C)c1)c1ccc(OCC(C)(C)O)c(C)c1 .
a: 163

q: Entry CCC(CC)(c1ccc(OCCC(C)(C)O)c(C)c1)c1ccc(OC[C@@H](O)CO)c(C)c1 needs its EC50 filled in; supply it.
a: 41.7

q: Provide measured EC50 value, entry: CCC(O)(CC)COc1ccc(C(CC)(CC)c2ccc(OC(CO)CO)c(C)c2)cc1C
a: 17.2

q: Name the recorded EC50 of the item CCC(O)(CC)COc1ccc(C(CC)(CC)c2ccc(OC[C@@H](O)CO)c(C)c2)cc1C in your answer.
a: 18
